test system: antidiuretic response to arginine vasopressin; experiment: Antagonism of the antidiuretic response to arginine vasopressin (Anti-ADH); assay type: in vivo, rats; settings: Table 1; estimated in vivo pA2 = negative log of effective dose divided by volume of distribution (67 ml/kg)
*1 amine or outer side, *2 acyl side, *3 side chain or, on linkers, in order; H or OH if unused. Where a SMILES comes first, the peptide text is derived from it. Bridges are numbered along the chain shown (N, C = ends). X1 = O=C(CC1(S[*:2])CCCCC1)[*:1]
Quick reference for Anti-ADH pA2 among some compounds
Kindly provide the number alone.

| compound | test_result |
| --- | --- |
| CCOc1ccc(C[C@@H]2NC(=O)CC3(CCCCC3)SSC[C@@H](C(=O)N3CCC[C@H]3C(=O)N[C@@H](CCCNC(=N)N)C(=O)NCC(N)=O)NC(=O)[C@H](CC(N)=O)NC(=O)[C@H](C(C)C)NC(=O)[C@H](Cc3ccccc3)NC2=O)cc1 [d(CH2)5 [Tyr(Et)]^2 VAVP, reference compound] (Y(Et)FVNCPRG-NH2; linker N-5 via X1) | 7.57 |

Form: compound = CCOc1ccc(C[C@@H]2NC(=O)CC3(CCCCC3)SSC[C@@H](C(=O)N3CCC[C@H]3C(=O)N[C@@H](CCCNC(=N)N)C(N)=O)NC(=O)[C@H](CC(N)=O)NC(=O)[C@H](C(C)C)NC(=O)[C@H](Cc3ccccc3)NC2=O)cc1 [desGly^9 d(CH2)5 [Tyr(Et)^2]VAVP] (Y(Et)FVNCPR-NH2; linker N-5 via X1) ; Anti-ADH pA2 = 7.89

----------
system: antidiuretic response to arginine vasopressin; experiment: Antagonism of the antidiuretic response to arginine vasopressin (Anti-ADH); format: in vivo, rats; conditions: Table 1; estimated in vivo pA2 = negative log of effective dose divided by volume of distribution (67 ml/kg)
*1 amine or outer side, *2 acyl side, *3 side chain or, on linkers, in order; H or OH if unused. Where a SMILES comes first, the peptide text is derived from it. Bridges are numbered along the chain shown (N, C = ends). [ ]: non-standard residue; d: D form. X1 = O=C(CC1(S[*:2])CCCCC1)[*:1]
measured_quantity: Anti-ADH pA2
# output: bare number, no unit

Solved cases below.
| molecule | target_of_assay | test_result |
| --- | --- | --- |
| CC[C@H](C)[C@@H]1NC(=O)[C@H](Cc2ccccc2)NC(=O)[C@@H](Cc2ccccc2)NC(=O)CC2(CCCCC2)SSC[C@@H](C(=O)N2CCC[C@H]2C(=O)N[C@@H](CCCNC(=N)N)C(=O)O)NC(=O)[C@H](CC(N)=O)NC1=O ([dF]FINCPR-OH; linker N-5 via X1) | antidiuretic response to arginine vasopressin | 7.20 |
| CC(C)[C@@H]1NC(=O)[C@H](Cc2ccccc2)NC(=O)[C@@H](Cc2ccccc2)NC(=O)CC2(CCCCC2)SSC[C@@H](C(=O)N2CCC[C@H]2C(=O)N[C@@H](CCCNC(=N)N)C(=O)NCC(N)=O)NC(=O)[C@H](CC(N)=O)NC1=O [d(CH2) 5 [D-Phe^2]VAVP, reference compound] ([dF]FVNCPRG-NH2; linker N-5 via X1) | antidiuretic response to arginine vasopressin | 8.06 |

Record summary for CC[C@H](C)[C@@H]1NC(=O)[C@H](Cc2ccccc2)NC(=O)[C@@H](Cc2ccccc2)NC(=O)CC2(CCCCC2)SSC[C@@H](C(=O)N2CCC[C@H]2C(=O)N[C@@H](CCCNC(=N)N)C(=O)NCC(=O)O)NC(=O)[C@H](CC(N)=O)NC1=O [d(CH2)5 [D-Phe^2,Ile^ 4]AVP acid] ([dF]FINCPRG-OH; linker N-5 via X1) : reported Anti-ADH pA2 = 7.11

----------
tested on: antidiuretic response to arginine vasopressin; test: Antagonism of the antidiuretic response to arginine vasopressin (Anti-ADH); assay type: in vivo, rats; conditions: Table 1; estimated in vivo pA2 = negative log of effective dose divided by volume of distribution (67 ml/kg)
*1 amine or outer side, *2 acyl side, *3 side chain or, on linkers, in order; H or OH if unused. Where a SMILES comes first, the peptide text is derived from it. Bridges are numbered along the chain shown (N, C = ends). [ ]: non-standard residue; d: D form. X1 = O=C(CC1(S[*:2])CCCCC1)[*:1]
measured_quantity: Anti-ADH pA2
Answer with a bare number; do not write a unit.

Past entries and their recorded results:
| compound | target_of_assay | Anti-ADH pA2 |
| --- | --- | --- |
| CCOc1ccc(C[C@H]2NC(=O)CC3(CCCCC3)SSC[C@@H](C(=O)N3CCC[C@H]3C(=O)N[C@@H](CCCNC(=N)N)C(=O)NCC(N)=O)NC(=O)[C@H](CC(N)=O)NC(=O)[C@H](C(C)C)NC(=O)[C@H](Cc3ccccc3)NC2=O)cc1 [d(CH2)5 [D-Tyr(Et)^2]VAVP, reference compound] ([dY](Et)FVNCPRG-NH2; linker N-5 via X1) | antidiuretic response to arginine vasopressin | 7.81 |
| CCOc1ccc(C[C@H]2NC(=O)CC3(CCCCC3)SSC[C@@H](C(=O)N3CCC[C@H]3C(=O)N[C@@H](CCCNC(=N)N)C(N)=O)NC(=O)[C@H](CC(N)=O)NC(=O)[C@H](C(C)C)NC(=O)[C@H](Cc3ccccc3)NC2=O)cc1 [desGly^9 d(CH2)5 [D-Tyr(Et)^2]VAVP] ([dY](Et)FVNCPR-NH2; linker N-5 via X1) | antidiuretic response to arginine vasopressin | 7.69 |
| CC[C@H](C)[C@@H]1NC(=O)[C@H](Cc2ccccc2)NC(=O)[C@@H](Cc2ccccc2)NC(=O)CC2(CCCCC2)SSC[C@@H](C(=O)N2CCC[C@H]2C(=O)N[C@@H](CCCNC(=N)N)C(N)=O)NC(=O)[C@H](CC(N)=O)NC1=O [desGly^9 d(CH2)5 [D-Phe^2,Ile^ 4]AVP] ([dF]FINCPR-NH2; linker N-5 via X1) | antidiuretic response to arginine vasopressin | 8.05 |

For record CC(C)[C@@H]1NC(=O)[C@H](Cc2ccccc2)NC(=O)[C@@H](Cc2ccccc2)NC(=O)CC2(CCCCC2)SSC[C@@H](C(=O)N2CCC[C@H]2C(=O)N[C@@H](CCCNC(=N)N)C(N)=O)NC(=O)[C@H](CC(N)=O)NC1=O [desGly^9 d(CH2)5 [D-Phe^2]VAVP] ([dF]FVNCPR-NH2; linker N-5 via X1) the listed Anti-ADH pA2 is 8.09

Form: compound = CC(C)[C@@H]1NC(=O)[C@H](Cc2ccccc2)NC(=O)[C@@H](Cc2ccccc2)NC(=O)CC2(CCCCC2)SSC[C@@H](C(=O)N2CCC[C@H]2C(=O)N[C@@H](CCCNC(=N)N)C(=O)O)NC(=O)[C@H](CC(N)=O)NC1=O [desGly(NH2)^9 d(CH2)5 [D-Phe^2]VAVP] ([dF]FVNCPR-OH; linker N-5 via X1) ; Anti-ADH pA2 = 7.75
